procedure-summary: Selectivity index, ratio of EC50 for human HepG2 cells to EC50 for antiplasmodial activity against multidrug-resistant Plasmodium falciparum Dd2 infected in human A-positive erythrocytes
Format: toxicity, cell-based
setup-conditions: read-out: Ratio EC50
Where a SMILES comes first, the peptide text is derived from it. [ ]: non-standard residue; d: D form. Leu(ol) = CC(C)C[C@H](N)CO; dIva = CC[C@@](C)(N)C(=O)O; Aib = CC(C)(N)C(=O)O
// reported selectivity ratio for each item listed

compound	selectivity ratio
CC[C@H](C)[C@H](NC(=O)[C@H](CC(C)C)NC(=O)[C@H](CCC(N)=O)NC(=O)[C@@](C)(CC)NC(C)=O)C(=O)NC(C)(C)C(=O)N1CCC[C@H]1C(=O)N[C@](C)(CC)C(=O)N[C@@H](CC(C)C)C(=O)NC(C)(C)C(=O)N1CCC[C@H]1C(=O)N[C@H](CO)CC(C)C (Ac-[dIva]QLI[Aib]P[dIva]L[Aib]P[Leu(ol)])	> 250
CC[C@H](C)[C@H](NC(=O)[C@H](CO)NC(=O)[C@@H]1CCCN1C(=O)C(C)(C)NC(=O)[C@H](CC(C)C)NC(=O)[C@H](CCC(N)=O)NC(=O)C(C)(C)NC(C)=O)C(=O)NC(C)(C)C(=O)N1CCC[C@H]1C(=O)NC(C)(C)C(=O)N[C@@H](CC(C)C)C(=O)NC(C)(C)C(=O)N1CCC[C@H]1C(=O)N[C@H](CO)CC(C)C (HELM PEPTIDE1{[ac].[Aib].Q.L.[Aib].P.S.I.[Aib].P.[Aib].L.[Aib].P.[CC(C)C[C@@H](CO)N[*:1]]}$$$$V2.0)	> 14

====

# selectivity ratio values compiled below
procedure-summary: Selectivity index, ratio of EC50 for human HepG2 cells to EC50 for antiplasmodial activity against multidrug-resistant Plasmodium falciparum Dd2 infected in human A-positive erythrocytes
Format: toxicity, cell-based
setup-conditions: read-out: Ratio EC50
Where a SMILES comes first, the peptide text is derived from it. [ ]: non-standard residue; d: D form. Leu(ol) = CC(C)C[C@H](N)CO; dIva = CC[C@@](C)(N)C(=O)O; Aib = CC(C)(N)C(=O)O

compound	selectivity ratio
CC[C@H](C)[C@H](NC(=O)[C@H](C)NC(=O)[C@@H]1CCCN1C(=O)C(C)(C)NC(=O)[C@H](CC(C)C)NC(=O)[C@H](CCC(N)=O)NC(=O)[C@@](C)(CC)NC(C)=O)C(=O)NC(C)(C)C(=O)N1CCC[C@H]1C(=O)N[C@](C)(CC)C(=O)N[C@@H](CC(C)C)C(=O)NC(C)(C)C(=O)N1CCC[C@H]1C(=O)N[C@H](CO)CC(C)C (Ac-[dIva]QL[Aib]PAI[Aib]P[dIva]L[Aib]P[Leu(ol)])	> 76
CCCCCCCC(=O)NC(C)(C)C(=O)NCC(=O)N[C@@H](CC(C)C)C(=O)NC(C)(C)C(=O)NCC(=O)NCC(=O)N[C@@H](CC(C)C)C(=O)NC(C)(C)C(=O)NCC(=O)N[C@H](C(=O)N[C@H](CO)CC(C)C)[C@@H](C)CC	9
CC[C@H](C)[C@H](NC(=O)[C@H](CO)NC(=O)[C@@H]1CCCN1C(=O)C(C)(C)NC(=O)[C@H](CC(C)C)NC(=O)[C@H](CC(N)=O)NC(=O)C(C)(C)NC(C)=O)C(=O)NC(C)(C)C(=O)N1CCC[C@H]1C(=O)NC(C)(C)C(=O)N[C@@H](CC(C)C)C(=O)NC(C)(C)C(=O)N1CCC[C@H]1C(=O)N[C@H](CO)CC(C)C (HELM PEPTIDE1{[ac].[Aib].N.L.[Aib].P.S.I.[Aib].P.[Aib].L.[Aib].P.[CC(C)C[C@@H](CO)N[*:1]]}$$$$V2.0)	> 40
